These measurements were taken from patent US20140213531A1.

# assayed-target: T1, Chymase, from human skin (human, UniProt P23946 22-247)
# T1 sequence (looked up): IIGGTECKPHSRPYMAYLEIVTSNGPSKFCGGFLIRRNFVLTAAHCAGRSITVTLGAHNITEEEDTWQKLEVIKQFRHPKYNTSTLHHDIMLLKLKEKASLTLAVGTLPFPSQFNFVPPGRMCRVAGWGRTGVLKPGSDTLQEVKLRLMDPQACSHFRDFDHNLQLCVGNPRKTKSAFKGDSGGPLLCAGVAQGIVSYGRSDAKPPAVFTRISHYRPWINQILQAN
# test-details: cell-based or functional assay
observation-type: % inhibition at 100 µM (%)
Your answer is read as %, so omit the unit and give the number.

{"binder": "RXTKSDPPIXF (HELM PEPTIDE1{R.[Nle].T.K.S.D.P.P.I.[Nle].F.[dP].P}$PEPTIDE1,PEPTIDE1,1:R1-13:R2$$$V2.0; SMILES CCCC[C@@H]1NC(=O)[C@H](CCCNC(=N)N)NC(=O)[C@@H]2CCCN2C(=O)[C@H]2CCCN2C(=O)[C@H](Cc2ccccc2)NC(=O)[C@H](CCCC)NC(=O)[C@H]([C@@H](C)CC)NC(=O)[C@@H]2CCCN2C(=O)[C@@H]2CCCN2C(=O)[C@H](CC(=O)O)NC(=O)[C@H](CO)NC(=O)[C@H](CCCCN)NC(=O)[C@H]([C@@H](C)O)NC1=O) [Example 8]", "% inhibition at 100 µM / %": 71.7}

Reported % inhibition at 100 µM of XCTKSDPPICY (HELM PEPTIDE1{[Nle].C.T.K.S.D.P.P.I.C.Y.[dP].P}$PEPTIDE1,PEPTIDE1,2:R3-10:R3|PEPTIDE1,PEPTIDE1,1:R1-13:R2$$$V2.0; SMILES CCCC[C@@H]1NC(=O)[C@@H]2CCCN2C(=O)[C@H]2CCCN2C(=O)[C@H](Cc2ccc(O)cc2)NC(=O)[C@@H]2CSSC[C@H](NC1=O)C(=O)N[C@@H]([C@@H](C)O)C(=O)N[C@@H](CCCCN)C(=O)N[C@@H](CO)C(=O)N[C@@H](CC(=O)O)C(=O)N1CCC[C@H]1C(=O)N1CCC[C@H]1C(=O)N[C@@H]([C@@H](C)CC)C(=O)N2) [Example 44] : 3
